molecular target: D-dimer (cross-linked fibrin degradation product) (Homo sapiens, UniProt P02671;P02675;P02679 SEQ:1-87,SEQ:1-328,SEQ:1-324); test: SPR; SPRi, biotinylated aptamer on streptavidin gold, 10 nM D-dimer in flow; ka 2.0e6, kd 0.0048 per s; details: tags: none stated; about 180 kDa; chain copies: 2 of each chain (inferred); label: 3' biotin
Sequence (P02671 130-216, chain 1 of 3): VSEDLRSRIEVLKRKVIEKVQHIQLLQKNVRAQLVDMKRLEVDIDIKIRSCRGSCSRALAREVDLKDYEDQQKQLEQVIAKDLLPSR
Sequence (P02675 164-491, chain 2 of 3): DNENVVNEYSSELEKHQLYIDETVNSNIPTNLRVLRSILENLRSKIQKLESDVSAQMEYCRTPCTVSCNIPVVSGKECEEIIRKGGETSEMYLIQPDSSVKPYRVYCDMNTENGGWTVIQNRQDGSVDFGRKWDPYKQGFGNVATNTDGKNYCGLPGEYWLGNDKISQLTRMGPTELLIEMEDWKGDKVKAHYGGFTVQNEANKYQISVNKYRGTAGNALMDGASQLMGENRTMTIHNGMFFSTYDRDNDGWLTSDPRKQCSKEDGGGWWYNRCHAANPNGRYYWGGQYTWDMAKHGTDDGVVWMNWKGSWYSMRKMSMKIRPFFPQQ
Sequence (P02679 other isoform, or with tags, fused parts or gaps, chain 3 of 3): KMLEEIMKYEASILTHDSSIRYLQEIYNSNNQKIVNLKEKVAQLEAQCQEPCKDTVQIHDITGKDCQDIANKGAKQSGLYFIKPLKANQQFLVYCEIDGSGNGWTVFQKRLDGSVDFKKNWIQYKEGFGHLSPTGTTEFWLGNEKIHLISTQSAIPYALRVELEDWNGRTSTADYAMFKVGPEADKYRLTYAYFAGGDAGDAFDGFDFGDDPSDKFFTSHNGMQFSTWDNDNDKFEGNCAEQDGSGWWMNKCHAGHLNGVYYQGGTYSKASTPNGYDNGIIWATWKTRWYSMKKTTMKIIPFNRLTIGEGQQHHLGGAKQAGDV
measured_property: pKd
Note on units: pKd is unitless, being -log10 of a concentration expressed in mol/L.

Given GCGCGGTCCCGATTTGGTGTAAAATTCCCTCAGCCCTACA (ssDNA) [3'Biotin-ADI1701] , state its recorded pKd.
8.60
